Reported Hemolysis (ED50 μg/mL) values follow for various compounds
- Test system: SRBC
- assay-method-text: Hemolysis of SRBC
- Format: cell-based
- condition: concentration necessary to achieve 50% hemolysis of SRBC

# compound, Hemolysis (ED50 μg/mL)
records = [
    ("CCN1c2c(O)cccc2C(=O)N(CC=C(C)CCC=C(C)CCCC(C)(C)OC)c2cc(O)cc(O)c21 [Compound 85]", ">64 µg/mL"),
    ("COc1cccc2c1Nc1c(O)cc(O)cc1N(C/C=C(\\C)CC/C=C(\\C)CCC=C(C)C)C2=O [Compound 4]", ">64 µg/mL"),
    ("C/C(=C\\CN1C(=O)c2cccc(O)c2Nc2c(O)cc(O)cc21)CC/C=C(\\C)CCC1OC1(C)C (centres unmarked) [Compound 18]", ">64 µg/mL"),
    ("COC(C)(C)CCCC(C)=CCCC(C)=CCN1C(=O)c2cccc(O)c2Nc2c(O)cc(O)cc21 [Compound 82]", ">64 µg/mL"),
    ("CCCCCCN1c2c(O)cccc2C(=O)N(C/C=C(\\C)CC/C=C(\\C)CCC=C(C)C)c2cc(O)cc(O)c21 [Compound 67]", ">64 µg/mL"),
    ("CC(C)=CCC/C(C)=C/CC/C(C)=C/CN1C(=O)c2cccc(O)c2Nc2c(O)cc(O)cc21 [Compound 1]", "7.6 µg/mL"),
    ("CC(=O)NC(C)(CCC=C(C)C)CCCC(C)=CCN1C(=O)c2cccc(O)c2Nc2c(O)cc(O)cc21 (centres unmarked) [Compound 92]", ">64 µg/mL"),
    ("CC(C)CCCC(C)CCCC(C)CCN1C(=O)c2cccc(O)c2N(C)c2c(O)cc(O)cc21 (centres unmarked) [Compound 78]", "9.89 µg/mL"),
    ("CC(C)CCCC(C)CCCC(C)CCN1C(=O)c2cccc(O)c2Nc2c(O)cc(O)cc21 (centres unmarked) [Compound 46]", "13.9 µg/mL"),
    ("CC(C)=CCC/C(C)=C/CC/C(C)=C/CN1C(=O)c2cccc(O)c2N(Cc2ccccc2)c2c(O)cc(O)cc21 [Compound 3]", ">64 µg/mL"),
    ("COc1cc(OC)c2c(c1)N(C/C=C(\\C)CC/C=C(\\C)CCC=C(C)C)C(=O)c1cccc(O)c1N2 [Compound 6]", ">64 µg/mL"),
    ("COC(C)(CCC=C(C)C)CCC/C(C)=C/CN1C(=O)c2cccc(O)c2Nc2c(O)cc(O)cc21 (centres unmarked) [Compound 83]", "12.4 µg/mL"),
    ("[2H]C([2H])([2H])N1c2c(O)cccc2C(=O)N(C/C=C(\\C)CC/C=C(\\C)CCC=C(C)C)c2cc(O)cc(O)c21 [Compound 98]", "4.5 µg/mL"),
    ("CC(C)=CCCC(C)(O)CCCC(C)=CCN1C(=O)c2cccc(O)c2Nc2c(O)cc(O)cc21 (centres unmarked) [Compound 89]", ">64 µg/mL"),
    ("CC(C)=CCCC1(C)OC1CC/C(C)=C/CN1C(=O)c2cccc(O)c2Nc2c(O)cc(O)cc21 (centres unmarked) [Compound 17]", "35.0 µg/mL"),
    ("COC(C)(C)CCCC(C)(CCCC(C)=CCN1C(=O)c2cccc(O)c2Nc2c(O)cc(O)cc21)OC (centres unmarked) [Compound 84]", ">32 µg/mL"),
    ("CC(=O)Oc1cccc2c1Nc1c(OC(C)=O)cc(O)cc1N(CC=C(C)CCC=C(C)CCC=C(C)C)C2=O [Compound 10]", ">64 µg/mL"),
]

====

- target-or-system: Leukotriene, Cysteinyl (CysLT1) receptor (Homo sapiens, UniProt Q9Y271)
- Construct: expressed in transfected cells; host or cells: CHO-K1 cells
- Sequence (Q9Y271 whole entry): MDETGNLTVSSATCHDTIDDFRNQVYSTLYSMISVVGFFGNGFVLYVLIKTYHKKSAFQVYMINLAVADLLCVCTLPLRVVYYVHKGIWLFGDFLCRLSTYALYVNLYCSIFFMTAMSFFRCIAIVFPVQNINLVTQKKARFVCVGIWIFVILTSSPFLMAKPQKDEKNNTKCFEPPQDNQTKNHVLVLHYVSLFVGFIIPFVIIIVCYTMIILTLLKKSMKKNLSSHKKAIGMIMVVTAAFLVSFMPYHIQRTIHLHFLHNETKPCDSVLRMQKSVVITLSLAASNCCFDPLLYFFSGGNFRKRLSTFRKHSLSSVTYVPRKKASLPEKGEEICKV
- assay-method-text: CysLT1 radioligand binding assay
- condition: 4 μM compound, 1% DMSO; read-out: Percentage of inhibition or binding activity, CysLT1 (4 μM)
- Excerpt: Leukotriene, Cysteinyl (CysLT1) is involved in inflammation and CysLT1-selective antagonists are used as treatment for bronchial asthma. […]
// Not satisfied strictly below 70% in inhibition at 4 µM; Satisfied otherwise

# compound, qualitative-label
measured = [
    ("CC(=O)Oc1cccc2c1Nc1c(OC(C)=O)cc(O)cc1N(CC=C(C)CCC=C(C)CCC=C(C)C)C2=O [Compound 10]", "Not satisfied"),
    ("COc1cccc2c1Nc1c(OC)cc(O)cc1N(CC=C(C)CCC=C(C)CCC=C(C)C)C2=O [Compound 7]", "Not satisfied"),
    ("CC(C)=CCC/C(C)=C/CC/C(C)=C/CN1C(=O)c2cccc(O)c2Nc2c(O)cc(O)cc21 [Compound 1]", "Satisfied"),
    ("CC(C)=CCC/C(C)=C/CC/C(C)=C/CN1C(=O)c2cccc(O)c2N(Cc2ccccc2)c2c(O)cc(O)cc21 [Compound 3]", "Not satisfied"),
]

====

Listed next: entries and their corresponding inhibition at 1 µM.
- target-or-system: peripheral benzodiazepine receptor (PBR) (Rattus norvegicus, UniProt P16257)
- Construct: CBR and PBR were obtained from rat brain and heart membrane-fractions, respectively; from tissue; host or cells: Wistar rat heart membranes
- assay-method-text: PBR radioligand binding assay ([3H]PK-11195, rat heart)
- condition: 1 μM compound, 1% DMSO; read-out: Percentage of inhibition or binding activity, PBR (1 μM)

# compound, inhibition at 1 µM
records = [
    ("COc1cc(OC)c2c(c1)N(CC=C(C)CCC=C(C)CCC=C(C)C)C(=O)c1cccc(OC)c1N2 [Compound 8]", "55%"),
    ("COc1cccc2c1Nc1c(OC)cc(O)cc1N(CC=C(C)CCC=C(C)CCC=C(C)C)C2=O [Compound 7]", "65%"),
    ("CC(C)=CCC/C(C)=C/CC/C(C)=C/CN1C(=O)c2cccc(O)c2Nc2c(O)cc(O)cc21 [Compound 1]", "80%"),
    ("CC(C)=CCC/C(C)=C/CC/C(C)=C/CN1C(=O)c2cccc(O)c2N(Cc2ccccc2)c2c(O)cc(O)cc21 [Compound 3]", "11%"),
]

====

- target-or-system: human 5-LO (Homo sapiens, UniProt P09917)
- Construct: Human peripheral blood […] (PMNs) were isolated through a Ficoll-Paque density gradient; endogenous in cells; host or cells: human peripheral blood mononuclear cells (PBML/PMNs)
- Sequence (P09917 whole entry): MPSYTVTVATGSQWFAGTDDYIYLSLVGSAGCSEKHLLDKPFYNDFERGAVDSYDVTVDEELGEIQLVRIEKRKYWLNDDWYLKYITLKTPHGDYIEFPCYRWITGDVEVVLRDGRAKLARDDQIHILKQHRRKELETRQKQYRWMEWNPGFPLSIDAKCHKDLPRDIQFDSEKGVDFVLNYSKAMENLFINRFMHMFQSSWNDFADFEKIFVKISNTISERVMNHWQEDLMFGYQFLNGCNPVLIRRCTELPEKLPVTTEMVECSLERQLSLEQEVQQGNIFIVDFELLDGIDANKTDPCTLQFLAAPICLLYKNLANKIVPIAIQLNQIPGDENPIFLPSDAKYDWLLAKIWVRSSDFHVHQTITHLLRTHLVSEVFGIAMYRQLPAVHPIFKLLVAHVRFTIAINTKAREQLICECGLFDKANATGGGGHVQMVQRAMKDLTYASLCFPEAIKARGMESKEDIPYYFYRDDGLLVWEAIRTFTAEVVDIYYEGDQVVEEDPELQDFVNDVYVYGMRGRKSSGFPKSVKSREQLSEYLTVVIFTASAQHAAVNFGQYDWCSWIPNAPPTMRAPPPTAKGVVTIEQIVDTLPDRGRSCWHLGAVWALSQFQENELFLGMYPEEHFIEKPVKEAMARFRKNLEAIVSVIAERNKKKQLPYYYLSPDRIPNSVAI
- assay-method-text: 5-LO inhibition assay (EIA quantitation of LTB4)
- Type: biochemical
- condition: 4 μM compound, 1% DMSO; read-out: Percentage of inhibition or binding activity, 5-LO (4 μM)

# smiles-representation, target-or-system, inhibition at 4 µM
data = [
    ("CC(=O)Oc1cccc2c1Nc1c(OC(C)=O)cc(O)cc1N(CC=C(C)CCC=C(C)CCC=C(C)C)C2=O", "human 5-LO (Homo sapiens, UniProt P09917)", "97%"),
    ("COc1cccc2c1Nc1c(O)cc(O)cc1N(C/C=C(\\C)CC/C=C(\\C)CCC=C(C)C)C2=O", "human 5-LO (Homo sapiens, UniProt P09917)", "98%"),
    ("CC(=O)Oc1cc(OC(C)=O)c2c(c1)N(CC=C(C)CCC=C(C)CCC=C(C)C)C(=O)c1cccc(O)c1N2", "human 5-LO (Homo sapiens, UniProt P09917)", "96%"),
    ("COc1cc(O)cc2c1Nc1c(O)cccc1C(=O)N2C/C=C(\\C)CC/C=C(\\C)CCC=C(C)C", "human 5-LO (Homo sapiens, UniProt P09917)", "98%"),
]

====

- target-or-system: Leukotriene, Cysteinyl (CysLT1) receptor (Homo sapiens, UniProt Q9Y271)
- Construct: expressed in transfected cells; host or cells: CHO-K1 cells
- assay-method-text: CysLT1 radioligand binding assay
- condition: 4 μM compound, 1% DMSO; read-out: Percentage of inhibition or binding activity, CysLT1 (4 μM)
measurement-name: inhibition at 4 µM

# compound, measurement-name, measured-result
rows = [
    ("CC(=O)Oc1cc(OC(C)=O)c2c(c1)N(CC=C(C)CCC=C(C)CCC=C(C)C)C(=O)c1cccc(O)c1N2 [Compound 9]", "inhibition at 4 µM", "70%"),
    ("COc1cc(O)cc2c1Nc1c(O)cccc1C(=O)N2C/C=C(\\C)CC/C=C(\\C)CCC=C(C)C [Compound 5]", "inhibition at 4 µM", "72%"),
    ("CC(C)CCCC(C)CCCC(C)CCN1C(=O)c2cccc(O)c2Nc2c(O)cc(O)cc21 (stereo not drawn) [Compound 46]", "inhibition at 4 µM", "71%"),
]
